Origin of measurements: paper PMC5045424

# System under test: T1, La (LARP3, La/SSB), recombinant His-tagged wildtype (human, UniProt P05455 1-408)
# T1 sequence: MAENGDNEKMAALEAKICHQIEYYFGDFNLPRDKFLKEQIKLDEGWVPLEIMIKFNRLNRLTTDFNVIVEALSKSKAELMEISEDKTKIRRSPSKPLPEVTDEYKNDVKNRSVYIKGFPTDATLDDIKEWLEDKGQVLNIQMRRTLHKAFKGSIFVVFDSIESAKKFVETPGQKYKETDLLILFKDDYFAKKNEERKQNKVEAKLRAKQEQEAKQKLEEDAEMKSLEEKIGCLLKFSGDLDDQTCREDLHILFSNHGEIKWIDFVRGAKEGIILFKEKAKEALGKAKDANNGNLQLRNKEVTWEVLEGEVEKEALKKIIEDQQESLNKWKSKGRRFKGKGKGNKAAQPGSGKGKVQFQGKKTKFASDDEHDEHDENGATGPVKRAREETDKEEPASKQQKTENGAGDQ
# Assay text: EMSA; 25 nM RNA, 0-600 nM La; EMSA and FP: 25 nM FAM-RNA, 0-600 nM La; competition FP: 200 nM La; buffer, salt, pH and temperature not given (cited to ref 21)
# Study conditions: protein: recombinant; tags: His; label: 5' 6-FAM; stem-loop embedding the AUG (mfold)
Readout kind: pKd
pKd is defined as minus the log10 of a concentration measured in mol/L.

Query: Which pKd reading was recorded for the binder CCCGUUGCUUUUCCUCUGGGAAGGAUGGCGCACGCUGGG (structured_RNA) [Bcl2_WT RNA oligonucleotide, FAM-labeled (-24 to +15)] ?
Result: 7.30
